target: Proteinase-activated receptor 1 (Homo sapiens, UniProt P25116); assay: Inhibition of [3H]S-(p-F-Phe)-Har-L-Har-KY-NH2 binding to thrombin receptor (PAR-1) on membranes from CHRF cells; assay type: cell membranes
Where a SMILES comes first, the peptide text is derived from it. [ ]: non-standard residue; d: D form. Cha = N[C@@H](CC1CCCCC1)C(=O)O; βAla = NCCC(=O)O
Measured pIC50 by item
Scale for pIC50: -log10 of concentration given in mol/L; no unit attached.

Molecule	pIC50
N=C(N)NCCC[C@H](NC(=O)[C@H](CC1CCCCC1)NC(=O)c1cccnc1Cl)C(=O)N[C@@H](Cc1ccccc1)C(N)=O	5.12
N=C(N)NCCC[C@H](NC(=O)[C@H](CC1CCCCC1)NC(=O)c1n[nH]c(N)n1)C(=O)N[C@@H](Cc1ccccc1)C(N)=O	5.72
N=C(N)NCCC[C@H](NC(=O)[C@H](Cc1ccccc1)NC(=O)c1nnc(N)[nH]1)C(=O)N[C@@H](Cc1ccccc1)C(N)=O	5.70
N=C(N)NCCC[C@H](NC(=O)[C@H](CC1CCCCC1)NC(=O)C1C=CC=NC1=O)C(=O)N[C@@H](Cc1ccccc1)C(N)=O (some centres not stated)	4.80
N=C(N)NCCC[C@H](NC(=O)[C@H](CC1CCCCC1)NC(=O)c1nnc(N)[nH]1)C(=O)N[C@@H](Cc1cccs1)C(N)=O	5.40
N=C(N)NCCC[C@H](NC(=O)[C@H](CC1CCCCC1)NC(=O)c1nnc(N)[nH]1)C(=O)N[C@H](C(N)=O)c1ccccc1	5.15

Next molecule, please.
Given the entry N=C(N)NCCC[C@H](NC(=O)[C@H](CC1CCCCC1)NC(=O)CCN)C(=O)N[C@@H](Cc1ccccc1)C(N)=O (H-[βAla][Cha]RF-NH2) , report its measured pIC50.
5.05

----------
target: Proteinase-activated receptor 1 (Homo sapiens); assay: Inhibition of [3H]S-(p-F-Phe)-Har-L-Har-KY-NH2 binding to Thrombin receptor 1 (PAR-1) on membranes from CHRF cells; format: cell membranes
Mark yes (1) only when IC50 stays strictly below 3 µM. Values equal to the cut-off are no (0).

Reference set, count: 6
Smiles text	Assigned category
N=C(N)NCCC[C@H](NC(=O)[C@H](CC1CCCCC1)NC(=O)c1n[nH]c(NC(=O)/C=C/c2cccc(Cl)c2)n1)C(=O)N[C@@H](Cc1ccccc1)C(N)=O	no (0)
N=C(N)NCCC[C@H](NC(=O)[C@H](CC1CCCCC1)NC(=O)c1n[nH]c(NC(=O)/C=C/c2ccccc2Cl)n1)C(=O)N[C@@H](Cc1ccccc1)C(N)=O	yes (1)
N=C(N)NCCC[C@H](NC(=O)[C@H](CC1CCCCC1)NC(=O)c1n[nH]c(NC(=O)/C=C/c2ccc(Cl)cc2)n1)C(=O)N[C@@H](Cc1ccccc1)C(N)=O	yes (1)
N=C(N)NCCC[C@H](NC(=O)[C@H](CC1CCCCC1)NC(=O)c1cnc(Cl)c(Cl)c1)C(=O)N[C@@H](Cc1ccccc1)C(N)=O	yes (1)
N=C(N)NCCC[C@H](NC(=O)[C@H](CC1CCCCC1)NC(=O)c1n[nH]c(NC(=O)/C=C/c2ccccc2)n1)C(=O)N[C@@H](Cc1ccccc1)C(N)=O	no (0)
N=C(N)NCCC[C@H](NC(=O)[C@H](CC1CCCCC1)NC(=O)c1n[nH]c(NC(=O)/C=C/c2ccc(C(F)(F)F)cc2)n1)C(=O)N[C@@H](Cc1ccccc1)C(N)=O	no (0)

Dear colleague, could you confirm whether IC50 of `N=C(N)NCCC[C@H](NC(=O)[C@H](CC1CCCCC1)NC(=O)c1n[nH]c(NC(=O)/C=C/c2ccc(F)cc2)n1)C(=O)N[C@@H](Cc1ccccc1)C(N)=O` falls below 3 µM? Thanks.
yes (1)

Do the same for `COc1ccc(/C=C/C(=O)Nc2n[nH]c(C(=O)N[C@@H](CC3CCCCC3)C(=O)N[C@@H](CCCN=C(N)N)C(=O)N[C@@H](Cc3ccccc3)C(N)=O)n2)cc1` please
no (0)

Do the same for `N=C(N)NCCC[C@H](NC(=O)[C@H](CC1CCCCC1)NC(=O)c1n[nH]c(NC(=O)/C=C/c2cccc([N+](=O)[O-])c2)n1)C(=O)N[C@@H](Cc1ccccc1)C(N)=O` please
no (0)

----------
species on record: Homo sapiens; experiment: Antagonist activity by using human gel-filtered platelet aggregation; type: functional
Measured IC50 by item
Give the value, in units of µM, as a plain number.

Given the entry `N=C(N)NCCC[C@H](NC(=O)[C@H](CC1CCCCC1)NC(=O)c1n[nH]c(NC(=O)/C=C/c2ccccc2Cl)n1)C(=O)N[C@@H](Cc1ccccc1)C(N)=O` , report its measured IC50.
3.6

Do the same for `N=C(N)NCCC[C@H](NC(=O)[C@H](CC1CCCCC1)NC(=O)c1n[nH]c(NC(=O)/C(F)=C/c2ccccc2)n1)C(=O)N[C@@H](Cc1ccccc1)C(N)=O` please
28

Do the same for `N=C(N)NCCC[C@H](NC(=O)[C@H](CC1CCCCC1)NC(=O)c1n[nH]c(NC(=O)/C=C/c2cccc3ccccc23)n1)C(=O)N[C@@H](Cc1ccccc1)C(N)=O` please
5.4

Do the same for `N=C(N)NCCC[C@H](NC(=O)[C@H](CC1CCCCC1)NC(=O)c1n[nH]c(NC(=O)/C=C/c2ccccc2)n1)C(=O)N[C@@H](Cc1ccccc1)C(N)=O` please
9.8

----------
Molecular target: Proteinase-activated receptor 1 (Homo sapiens)
Sequence (P25116 whole entry): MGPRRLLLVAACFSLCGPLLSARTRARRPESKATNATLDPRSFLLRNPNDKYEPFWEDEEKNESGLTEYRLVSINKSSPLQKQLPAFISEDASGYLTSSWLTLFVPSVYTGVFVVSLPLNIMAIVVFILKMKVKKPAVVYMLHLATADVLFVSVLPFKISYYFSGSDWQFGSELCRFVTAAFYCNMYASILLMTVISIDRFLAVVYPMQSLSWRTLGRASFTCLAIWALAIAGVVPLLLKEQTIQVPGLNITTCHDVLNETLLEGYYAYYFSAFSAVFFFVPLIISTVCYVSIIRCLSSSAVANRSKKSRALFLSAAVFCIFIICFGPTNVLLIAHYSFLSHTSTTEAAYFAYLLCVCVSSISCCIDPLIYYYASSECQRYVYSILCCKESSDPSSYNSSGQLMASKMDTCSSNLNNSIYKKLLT
Assay: Inhibition of [3H]S-(p-F-Phe)-Har-L-Har-KY-NH2 binding to thrombin receptor (PAR-1) on membranes from CHRF cells
Assay type: cell membranes
Mark Condition met only when IC50 stays strictly below 10 µM. Values equal to the cut-off are Condition not met.

Reference set, count: 3
Smiles text	System tested	Assigned category
C[C@H](NC(=O)c1n[nH]c(N)n1)C(=O)N[C@@H](CCCN=C(N)N)C(=O)N[C@@H](Cc1ccccc1)C(N)=O	Proteinase-activated receptor 1 (Homo sapiens)	Condition not met
N=C(N)NCCC[C@H](NC(=O)[C@H](CC1CCCCC1)NC(=O)c1cc2ccccc2s1)C(=O)N[C@@H](Cc1ccccc1)C(N)=O	Proteinase-activated receptor 1 (Homo sapiens)	Condition met
C[C@H](NC(=O)[C@H](CC1CCCCC1)NC(=O)c1n[nH]c(N)n1)C(=O)N[C@@H](Cc1ccccc1)C(N)=O	Proteinase-activated receptor 1 (Homo sapiens)	Condition not met

Dear colleague, could you confirm whether IC50 of `N=C(N)NCCC[C@H](NC(=O)[C@H](CC1CCCCC1)NC(=O)c1n[nH]c(NC(=O)/C=C/c2ccccc2[N+](=O)[O-])n1)C(=O)N[C@@H](Cc1ccccc1)C(N)=O` falls below 10 µM? Thanks.
Condition met

Do the same for `N=C(N)NCCC[C@H](NC(=O)[C@H](CC1CCCCC1)NC(=O)c1ccc(-c2ccccc2)cc1)C(=O)N[C@@H](Cc1ccccc1)C(N)=O` please
Condition not met

----------
Measured percent activation of platelet aggregation by item
target: Proteinase-activated receptor 1 (Homo sapiens) (UniProt P25116); assay: Evaluated for activation of human platelet aggregation (gel-filtered platelets) induced by alpha thrombin at 50 uM; format: functional
Where a SMILES comes first, the peptide text is derived from it. [ ]: non-standard residue; d: D form. Cha = N[C@@H](CC1CCCCC1)C(=O)O; βAla = NCCC(=O)O
Give the value, in units of %, as a plain number.

Example entries and their recorded answers appear below.
Compound	Test result
N=C(N)NCCC[C@H](NC(=O)[C@H](CC1CCCCC1)NC(=O)C1C=CC=NC1=O)C(=O)N[C@@H](Cc1ccccc1)C(N)=O (stereo not given in full)	26
NCCC(=O)N[C@@H](CC1CCCCC1)C(=O)N[C@@H](CCCN=C(N)N)C(=O)N[C@@H](Cc1ccccc1)C(N)=O (H-[βAla][Cha]RF-NH2)	30
N=C(N)NCCC[C@H](NC(=O)[C@H](CC1CCCCC1)NC(=O)c1ccncc1)C(=O)N[C@@H](Cc1ccccc1)C(N)=O	26
N=C(N)NCCC[C@H](NC(=O)[C@H](CC1CCCCC1)NC(=O)/C=C/c1ccccc1)C(=O)N[C@@H](Cc1ccccc1)C(N)=O	20
N=C(N)NCCC[C@H](NC(=O)[C@H](CC1CCCCC1)NC(=O)c1ccc[nH]1)C(=O)N[C@@H](Cc1ccccc1)C(N)=O	55
N=C(N)NCCC[C@H](NC(=O)[C@H](CC1CCCCC1)NC(=O)c1ccoc1)C(=O)N[C@@H](Cc1ccccc1)C(N)=O	38

Next compound, please.
Record `N=C(N)NCCC[C@H](NC(=O)[C@H](CC1CCCCC1)NC(=O)c1cc2ccccc2[nH]1)C(=O)N[C@@H](Cc1ccccc1)C(N)=O` : what is its percent activation of platelet aggregation with Proteinase-activated receptor 1 (Homo sapiens) (UniProt P25116)?
21
